experiment: inhibitors of E-selectin induction by TNFa, primary screen, imaging, HUVEC, immunofluorescence, MLSMR starter and 10KST1 sets (AID 487); conditions: HUVEC TNFalpha-induced E-selectin immunofluorescence imaging, at 2 µM; stronger effect = higher value;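 note: signal is fraction of cell area covered by stained E-selectin grains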
Heads up, the class ranges for inhibition are group A (below -70%), group B (-70% to below -40%), group C (-40% or more)

OCCN(CCO)c1ncnc2c1sc1nc(N3CCOCC3)c3c(c12)CCCC3; group B
CSC(=Nc1ccccc1)C1=C(O)COC1=O; group A
COc1ccccc1-n1c(=O)c2c3c(sc2n2c(SC)nnc12)CCC3; group A
COc1cc(-c2nn3c(-c4ccco4)nnc3s2)cc(OC)c1OC; group B
CC(C)(C)NCC(O)c1cc(O)cc(O)c1 (stereo unspecified); group C
CCCCn1c(-c2ccc(Cl)cc2)nc2c(=O)n(C)c(=O)[nH]c21; group A
COc1cccc(N2C(=O)C(O)=C(C(C)=O)C2c2ccc(OC)c(OC)c2)c1 (stereo unspecified); group C
CCOC(=O)C1=C(C)NC(SCC(=O)Nc2nc(C)cs2)=C(C#N)C1c1cccs1 (stereo unspecified); group B

Class (by measured inhibition) for `CC(=N\O)/C(CN(C)C)=N/O`
group C

For this compound, which bin applies? `CCOc1nc(Oc2cccc(C(=O)O)c2)nc(Oc2cccc(C(=O)O)c2)n1`
group B

====

target: Voltage-gated potassium channel subunit beta-2 (Rattus norvegicus); test: KvBeta positive modulators, primary screen, biochemical, NADPH fluorescence (AID 623); conditions: Recombinant KvBeta, NADPH fluorescence decrease slope, 10 min; at 10 µM; stronger effect = lower value;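 note: fluorescence intensity change per second fitted from 20 to 320 s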
readout_name: NADPH fluorescence slope
Give bare numbers.

CCCCOc1ccc(CSC(CC(=O)O)C(=O)O)cc1 (stereo unspecified); -0.000104
C/C=C(/C(=C/C)c1ccc(O)cc1)c1ccc(O)cc1; -5.4e-05
COc1ccc(OC)c(C2/C(=C(/O)c3cnn(-c4ccccc4)c3C)C(=O)C(=O)N2CCN(C)C)c1 (stereo unspecified); -9.5e-06
CCCCOc1ccc(C(=O)OC2CC(C)N(C)CC2C)cc1 (stereo unspecified); -0.000115
COc1cc(-c2nn3c(-c4ccccn4)nnc3s2)cc(OC)c1OC; -0.000128

Please examine the following record next.
Note to self: NADPH fluorescence slope of `CNC(=O)c1cc2c(ccc3ccccc32)oc1=N` with Voltage-gated potassium channel subunit beta-2 (Rattus norvegicus) was -2.6e-05

====

assay: DUSP6 inhibitors restoring Erk phosphorylation by chemical complementation, primary imaging in DUSP6-transfected HeLa (AID 609); conditions: HeLa MKP-3 transfected, phospho-Erk imaging KS statistic; measured here: nuclear pErk red intensity z-score; at 10 µM; stronger effect = higher value; cells stimulated with TPA for 15 min
Classify as follows. Reported z-score greater than or equal to 0.03: Satisfied. Reported z-score below: Not satisfied.

Use the examples below as a reference point.
CCOC(=O)CCc1c(C)c(C#N)c2nc3ccccc3n2c1-n1ccnc1C; Not satisfied
CN(C)CCCN1C(=O)C(O)=C(C(=O)c2cc3ccccc3o2)C1c1ccccn1 (stereo not given); Not satisfied
Cc1ccc2c(c1)C(CCN)C(=O)N2Cc1ccccc1 (stereo not given); Satisfied
Cc1cc(OCCN2CCOCC2)nc2ccccc12; Not satisfied
CC(=O)O[C@]1(C(C)=O)CC[C@H]2[C@@H]3C[C@H](C)C4=CC(=O)CC[C@]4(C)[C@H]3CC[C@@]21C; Satisfied

Could you please find out whether `Cc1ccc(SCc2c(C#N)c3ccccc3n2C)cc1` has z-score that meets 0.03 or exceeds it?
Satisfied

Can `O=C(c1ccco1)N1CCN(CCOCCOc2cccc3ccccc23)CC1` be said to have z-score at or above 0.03?
Satisfied

# check: z-score of N#CC1=C(SCc2ccccc2)NC2=C(C(=O)CCC2)C1c1ccc2c(c1)OCO2 (stereo not given) is greater than or equal to 0.03
Not satisfied

Please check the record NS(=O)(=O)c1ccc(-c2ccc(C=NC3CCS(=O)(=O)C3)o2)cc1 (stereo not given) and state if its z-score is at or above 0.03.
Satisfied
